assay: Influence of ritonavir on the pharmacokinetics of a single dose of the compound of formula (4); settings: human, in vivo, 800 mg
METRIC_NAME: Tmax (min)

• CC(C)CN(C[C@@H](O)[C@H](Cc1ccccc1)NC(=O)O[C@H]1CO[C@H]2OCC[C@H]21)S(=O)(=O)c1ccc(N)cc1 = 48

====

assay: Influence of ritonavir on the pharmacokinetics of a single dose of the compound of formula (4); conditions: human, in vivo, 800 mg, AUC, Session I: single 800 mg dose alone; mean ± SD
METRIC_NAME: AUC (ng·h/mL)

• CC(C)CN(C[C@@H](O)[C@H](Cc1ccccc1)NC(=O)O[C@H]1CO[C@H]2OCC[C@H]21)S(=O)(=O)c1ccc(N)cc1 [compound of formula (4)] = 10700

====

assay: Influence of ritonavir on the pharmacokinetics of a single dose of the compound of formula (4); settings: human, in vivo, 800 mg, AUC, Session II: single 800 mg dose with RTV; mean ± SD
METRIC_NAME: AUC (ng·h/mL)

- CC(C)CN(C[C@@H](O)[C@H](Cc1ccccc1)NC(=O)O[C@H]1CO[C@H]2OCC[C@H]21)S(=O)(=O)c1ccc(N)cc1 [compound of formula (4)]: 98700
